Readings of activity coefficient for the listed compounds
# test-details: activity coefficient (dimensionless); of the first substance listed, at infinite dilution; xn = mol fraction of the nth substance listed
# settings: 313.15 K; 101.33 kPa; Liquid; Chromatography; x1 = 0

Query: Using the record for CCCCO [butan-1-ol] + CCCCCCCCn1cc[n+](C)c1C.F[B-](F)(F)F , state its measured activity coefficient.
Result: 2.79

====

# test-details: activity coefficient (dimensionless); of the first substance listed, at infinite dilution; xn = mol fraction of the nth substance listed
# settings: 313.15 K; 101.33 kPa; Liquid; Chromatography; x1 = 0
Listing: activity coefficient of selected compounds
// response body must contain only the number

CCc1ccccc1 [ethylbenzene] + CCCCCCCCn1cc[n+](C)c1C.F[B-](F)(F)F :: 4.36
CO [methanol] + CCCCCCCCn1cc[n+](C)c1C.F[B-](F)(F)F :: 1.57
CCOC(C)=O [ethyl acetate] + CCCCCCCCn1cc[n+](C)c1C.F[B-](F)(F)F :: 2.91
ClC(Cl)Cl [trichloromethane] + CCCCCCCCn1cc[n+](C)c1C.F[B-](F)(F)F :: 1.04
CCCCCCCCC [nonane] + CCCCCCCCn1cc[n+](C)c1C.F[B-](F)(F)F :: 42.2

Now look at this entry.
Query: Provide one value: measured activity coefficient of CCCCCCC [heptane] + CCCCCCCCn1cc[n+](C)c1C.F[B-](F)(F)F
Result: 25.5

====

# test-details: activity coefficient (dimensionless); of the first substance listed, at infinite dilution; xn = mol fraction of the nth substance listed
# settings: 313.15 K; 101.33 kPa; Liquid; Chromatography; x1 = 0
One threshold, 30, splits the recorded activity coefficient values: lower ones are 1, equal or higher ones are -1.

Study these solved cases before continuing.
CCCCCC [hexane] + CCCCCCCCn1cc[n+](C)c1C.F[B-](F)(F)F :: 1
C1=CCCCC1 [cyclohexene] + CCCCCCCCn1cc[n+](C)c1C.F[B-](F)(F)F :: 1

Query: State whether 30 exceeds activity coefficient recorded for CCO [ethanol] + CCCCCCCCn1cc[n+](C)c1C.F[B-](F)(F)F .
Result: 1

Query: Given the entry CCCCCCCCCC [decane] + CCCCCCCCn1cc[n+](C)c1C.F[B-](F)(F)F , would its reported activity coefficient be below 30?
Result: -1

====

# test-details: activity coefficient (dimensionless); of the first substance listed, at infinite dilution; xn = mol fraction of the nth substance listed
# settings: 353.15 K; 101.33 kPa; Liquid; Chromatography; x1 = 0
// classify(record): look up activity coefficient in ranges one: < 2; two: ≥ 2 and < 10; three: ≥ 10

These recorded examples may help you get a feel for the data.
ClC(Cl)Cl [trichloromethane] + CCCCCCCCn1cc[n+](C)c1C.F[B-](F)(F)F :: one
ClC(Cl)(Cl)Cl [tetrachloromethane] + CCCCCCCCn1cc[n+](C)c1C.F[B-](F)(F)F :: two
CCCCO [butan-1-ol] + CCCCCCCCn1cc[n+](C)c1C.F[B-](F)(F)F :: two

Query: Kindly state the category for this compound: C1CCCCC1 [cyclohexane] + CCCCCCCCn1cc[n+](C)c1C.F[B-](F)(F)F
Result: three

Query: In plain terms, what class is CC(C)=O [acetone] + CCCCCCCCn1cc[n+](C)c1C.F[B-](F)(F)F ?
Result: one

Query: GET /class?item= CCC(C)O (centres undefined) [butan-2-ol] + CCCCCCCCn1cc[n+](C)c1C.F[B-](F)(F)F
Result: two

Query: Classify this compound: CCCCCC [hexane] + CCCCCCCCn1cc[n+](C)c1C.F[B-](F)(F)F
Result: three

Query: Which activity coefficient band matches CCCCCCC [heptane] + CCCCCCCCn1cc[n+](C)c1C.F[B-](F)(F)F ?
Result: three

Query: Into which category would you place c1ccccc1 [benzene] + CCCCCCCCn1cc[n+](C)c1C.F[B-](F)(F)F ?
Result: two

====

# test-details: activity coefficient (dimensionless); of the first substance listed, at infinite dilution; xn = mol fraction of the nth substance listed
# settings: 343.15 K; 101.33 kPa; Liquid; Chromatography; x1 = 0
activity coefficient reference
Just the number, please.

Cc1ccc(C)cc1 [1,4-dimethylbenzene] + CCCCCCCCn1cc[n+](C)c1C.F[B-](F)(F)F :: 4.2
CCO [ethanol] + CCCCCCCCn1cc[n+](C)c1C.F[B-](F)(F)F :: 1.67
CCCCCC [hexane] + CCCCCCCCn1cc[n+](C)c1C.F[B-](F)(F)F :: 18.7
Cc1ccccc1 [toluene] + CCCCCCCCn1cc[n+](C)c1C.F[B-](F)(F)F :: 3.02
CCCCCCCCC [nonane] + CCCCCCCCn1cc[n+](C)c1C.F[B-](F)(F)F :: 38.4

Query: Tell me measured activity coefficient for c1ccccc1 [benzene] + CCCCCCCCn1cc[n+](C)c1C.F[B-](F)(F)F please.
Result: 2.12

Query: Specify reported activity coefficient for the compound shown: CO [methanol] + CCCCCCCCn1cc[n+](C)c1C.F[B-](F)(F)F
Result: 1.26

Query: Kindly indicate its recorded activity coefficient. Item: C1COCCO1 [1,4-dioxane] + CCCCCCCCn1cc[n+](C)c1C.F[B-](F)(F)F
Result: 1.81

Query: Return activity coefficient (reported value) for this compound: Cc1ccccc1C [1,2-dimethylbenzene] + CCCCCCCCn1cc[n+](C)c1C.F[B-](F)(F)F
Result: 3.82

Query: State its activity coefficient for this compound: ClCCl [dichloromethane] + CCCCCCCCn1cc[n+](C)c1C.F[B-](F)(F)F
Result: 1.1

====

# activity coefficient per entry
# test-details: activity coefficient (dimensionless); of the first substance listed, at infinite dilution; xn = mol fraction of the nth substance listed
# settings: 313.15 K; 101.33 kPa; Liquid; Chromatography; x1 = 0
Respond using a number only.

Some entries whose results are on file:
ClC(Cl)(Cl)Cl [tetrachloromethane] + CCCCCCCCn1cc[n+](C)c1C.F[B-](F)(F)F :: 4.11
C1COCCO1 [1,4-dioxane] + CCCCCCCCn1cc[n+](C)c1C.F[B-](F)(F)F :: 1.67
CC(C)=O [acetone] + CCCCCCCCn1cc[n+](C)c1C.F[B-](F)(F)F :: 1.38

Proceeding to the next molecule to report its activity coefficient.
Query: Supply reported activity coefficient belonging to this molecule: CC(C)CO [2-methyl-1-propanol] + CCCCCCCCn1cc[n+](C)c1C.F[B-](F)(F)F
Result: 2.66

====

# test-details: activity coefficient (dimensionless); of the first substance listed, at infinite dilution; xn = mol fraction of the nth substance listed
# settings: 353.15 K; 101.33 kPa; Liquid; Chromatography; x1 = 0
Below, each entry is listed with its recorded activity coefficient.
Simply state the number, no unit and no words.

Query: Item CCCCC [pentane] + CCCCCCCCn1cc[n+](C)c1C.F[B-](F)(F)F : provide activity coefficient
Result: 14

Query: Query activity coefficient for CO [methanol] + CCCCCCCCn1cc[n+](C)c1C.F[B-](F)(F)F
Result: 1.18

Query: Identify activity coefficient associated with the compound Cc1ccc(C)cc1 [1,4-dimethylbenzene] + CCCCCCCCn1cc[n+](C)c1C.F[B-](F)(F)F
Result: 4.24

Query: Look up activity coefficient of CCOC(C)=O [ethyl acetate] + CCCCCCCCn1cc[n+](C)c1C.F[B-](F)(F)F and report it.
Result: 2.96

====

# test-details: activity coefficient (dimensionless); of the first substance listed, at infinite dilution; xn = mol fraction of the nth substance listed
# settings: 333.15 K; 101.33 kPa; Liquid; Chromatography; x1 = 0
result-type: activity coefficient
Give the figure by itself; no unit, no explanation.

Reference set, count: 3
CC(C)=O [acetone] + CCCCCCCCn1cc[n+](C)c1C.F[B-](F)(F)F :: 1.41
Cc1ccccc1 [toluene] + CCCCCCCCn1cc[n+](C)c1C.F[B-](F)(F)F :: 2.95
C1CCOC1 [tetrahydrofuran] + CCCCCCCCn1cc[n+](C)c1C.F[B-](F)(F)F :: 2.12

Now for the compound whose activity coefficient we want.
Query: # return recorded activity coefficient for input Cc1ccccc1C [1,2-dimethylbenzene] + CCCCCCCCn1cc[n+](C)c1C.F[B-](F)(F)F
Result: 3.7

====

# test-details: activity coefficient (dimensionless); of the first substance listed, at infinite dilution; xn = mol fraction of the nth substance listed
# settings: 333.15 K; 101.33 kPa; Liquid; Chromatography; x1 = 0
Listing: activity coefficient of selected compounds
Write the number on its own, no unit after it.

// below: answered compounds
CO [methanol] + CCCCCCCCn1cc[n+](C)c1C.F[B-](F)(F)F :: 1.36
CCCCC [pentane] + CCCCCCCCn1cc[n+](C)c1C.F[B-](F)(F)F :: 14.8

Query: Provide one value: measured activity coefficient of ClC(Cl)Cl [trichloromethane] + CCCCCCCCn1cc[n+](C)c1C.F[B-](F)(F)F
Result: 1.07
